test system: breast cancer cells MDA-MB-231; experiment: IFNγ release by CTL (ELISA) after incubation with peptide-loaded MDA-MB-231 cells; format: cell-based, human; conditions: Day 3 after peptide loading; CTL elicited with the corresponding HER2/neu peptide; 20 h; 10^5 CTL/well
parameter: Release of IFNγ by CTL, MDA-MB-231 cells loaded with the peptide (pg/mL)
Number only, in pg/mL; omit the unit.

INSERT INTO results (substance, recordedvalue) VALUES
  ('M R IISAVVGIL A A V C S A (MRIISAVVGILAAVCSA) [HER654-662-IN-ES]', 2666),
  ('MRYMILGLLALAAVCSA IISAVVGIL (MRYMILGLLALAAVCSAIISAVVGIL) [ES-HER654-662]', 2622),
  ('IISAVVGIL MTNKCLLQIALLLCFSTTALS (IISAVVGILMTNKCLLQIALLLCFSTTALS) [HER654-662-IS]', 102),
  ('MTNKCLLQIALLLCFSTTALS IISAVVGIL (MTNKCLLQIALLLCFSTTALSIISAVVGIL) [IS-HER654-662]', 1974),
  ('M A IISAVVGIL A A A A A G (MAIISAVVGILAAAAAG) [HER654-662-IN-AF]', 2994),
  ('IISAVVGIL MRYMILGLLALAAVCSA (IISAVVGILMRYMILGLLALAAVCSA) [HER654-662-ES]', 138);

Continue with the next substance.
IN: Using the record for IISAVVGIL (listed as Homo sapiens) [HER2/neu654-662, reference compound] , report its Release of IFNγ by CTL, MDA-MB-231 cells loaded with the peptide.
OUT: 438
